Source: PubChem BioAssay AID248

For each of the compounds below, state its T/C.
system: L1210 leukemia ip in BDF1 mice, survival T/C; assay: NCI In Vivo Anticancer Drug Screen. Data for tumor model L1210 Leukemia (intraperitoneal) in B6D2F1 (BDF1) mice; conditions: endpoint: mean survival time; dose: 50.0 mg/kg/injection; schedule: Q01DX009 (ip); vehicle: Klucel (hydroxypropylcellulose) (HPC); higher = longer survival
Inconclusive results and toxic doses are left out.

Reported T/C of CSc1cnnc2ccccc12 : 115 % of control

Reported T/C of CCN(CC)CCCC(C)Nc1cc(C)nc(/N=C(\N)Nc2ccc(Cl)c(Cl)c2)n1 (centres undefined) : 94 % of control

Reported T/C of O=C(O)C1C(C(=O)Nc2cc(C(F)(F)F)ccc2Cl)C2(Cl)C(Cl)=C(Cl)C1(Cl)C2(Cl)Cl (centres undefined) : 95 % of control

Reported T/C of CCN1C(=O)CC(=O)N(CC)C1=S : 103 % of control

Reported T/C of c1ccc(CC2NCCc3c2[nH]c2ccccc32)cc1 (centres undefined) : 103 % of control

Reported T/C of O=C(/C=C/c1ccc2c(c1)OCO2)c1ccccc1 : 97 % of control

Reported T/C of CC(C)Oc1ccc(Nc2ccccc2)cc1 : 100 % of control

Reported T/C of O=C(O)CCCl : 98 % of control

Reported T/C of Cc1cc(C(=O)NNCc2ccccc2)no1 : 97 % of control

Reported T/C of Cc1ccccc1NC(=O)CI : 101 % of control

Reported T/C of C=Cc1cc(C)cc(OC)c1O : 87 % of control

Reported T/C of COC1OC2COc3ccccc3OC2C(NC#N)C1OC (centres undefined) : 96 % of control

Reported T/C of S=c1n(Cc2ccccc2)cnc2ncnn12 : 93 % of control

Reported T/C of O=[N+]([O-])CC1(O)CCCCC1 : 98 % of control

Reported T/C of COc1ccc(CC(C(=O)O)C(Cc2ccc(OC)c(OC)c2)C(=O)O)cc1OC (centres undefined) : 94 % of control

Reported T/C of CN(CCCl)Cc1ccccc1 : 112 % of control

Reported T/C of CCn1nnc2c(N(C)C)nc(N)nc21 : 93 % of control

Reported T/C of O=[N+]([O-])c1ccc2nccc(Cl)c2c1 : 92 % of control

Reported T/C of O=[N+]([O-])c1cc(S(=O)(=O)c2ccc(Cl)c([N+](=O)[O-])c2)ccc1Cl : 92 % of control

###

Test system: L1210 leukemia ip in BDF1 mice, survival T/C
Test: NCI In Vivo Anticancer Drug Screen. Data for tumor model L1210 Leukemia (intraperitoneal) in B6D2F1 (BDF1) mice
Conditions: endpoint: mean survival time; dose: 100.0 mg/kg/injection; schedule: Q01DX009 (ip); vehicle: saline sonified; higher = longer survival
Experimental: The antitumor activity of compounds was measured in mice bearing transplantable tumors. Survival or tumor size were measured and the results are expressed as the measurement made in the treated group (T) divided by the measurement made in the vehicle treated control group (C). The tumor model used in this assay is L1210 Leukemia (intraperitoneal) in B6D2F1 (BDF1) mice
Toxic doses and inconclusive results are not listed.
For each of the compounds below, state its T/C.

Reported T/C of C=CP(c1ccccc1)c1ccccc1 : 103 % of control

Reported T/C of C=C(Cl)CSC(=S)N(CC)CC : 94 % of control

Reported T/C of CCO/C(=C\C(=O)c1ccccc1)c1ccccc1 : 95 % of control

Reported T/C of O=C(O)C1=CC(O)C(O)C(O)C1 (centres undefined) : 103 % of control
